This collection of values is drawn from paper PMC12040169.

- Procedure Summary: in vitro
- Run Conditions: human, hela cells, % viability
viability at 28.5 h, 10 µM vs 90%: less than gives y; not less than gives n.

Example entries and their recorded answers appear below.
>>> class_label("COc1cc(C2C(C(=O)c3cccs3)=C(O)C(=O)N2Cc2cccnc2)cc(OC)c1OC (centres unmarked)")
"n"
>>> class_label("Cn1c(NC(=O)c2ccccc2[N+](=O)[O-])cc(=O)n(C)c1=O")
"y"

Now consider the entry below.
Problem: For the compound `COc1cccc2c3c([nH]c12)CCCC3` , is viability at 28.5 h, 10 µM under 90%?
n

----------
- Procedure Summary: in vitro
- Run Conditions: human, hela cells, % viability
Quick list: viability at 28.5 h, 10 µM per entry.
Just the number in %, nothing appended.

>>> recorded_result("c1ccc(N2CCN(c3cc(-c4cc5ccccc5s4)ncn3)CC2)nc1 [CBK091084]")
102
>>> recorded_result("CCC(=O)N1CCC(NC(=O)c2cnc(-c3ccncc3)s2)C1 (centres unmarked) [CBK305550]")
94.6
>>> recorded_result("Cc1ccc2[nH]c(Cc3ccc(NC(=O)CCC4C(=O)Nc5ccccc54)cc3)nc2c1 (centres unmarked) [CBK285824]")
91
>>> recorded_result("COc1ccc(CN2CCN(C(=O)c3cccs3)CC2)cc1OC [CBK074410]")
104

Specify reported viability at 28.5 h, 10 µM for the molecule shown: Cc1cc(NS(=O)(=O)c2ccc(Nc3nc(-c4ccccn4)cs3)cc2)no1 [CBK263302B]
93.1

----------
- Procedure Summary: in vitro
- Run Conditions: human, hela cells, % viability
Property Measured: viability at 28.5 h, 10 µM (%)
Just the number in %, nothing appended.

These recorded examples may help you get a feel for the data.
>>> recorded_result("O=C(CSc1nc2ccccc2c(=O)[nH]1)Nc1ccccc1O [CBK269738]")
104
>>> recorded_result("Cc1cc(Br)ccc1-n1sc2ccccc2c1=O [CBK116239]")
87
>>> recorded_result("CC1CN(C(=O)NC2CCCCC2)C(c2ccccc2)ON1C (stereo not drawn) [CBK026650]")
109
>>> recorded_result("Cc1ccc(C(N)=O)c(OCC(=O)N2c3ccccc3CCC2C)c1 (stereo not drawn) [CBK295633]")
93.8

Specify reported viability at 28.5 h, 10 µM for the compound shown: COc1ccc(CC(=O)N2CC=C(c3ccc(C)o3)CC2)cc1 [CBK283572]
92.4

Specify reported viability at 28.5 h, 10 µM for the compound shown: COc1cc2c(cc1OC)CN(Cc1csc(C)n1)CC2 [CBK126443]
93.4

Specify reported viability at 28.5 h, 10 µM for the compound shown: O=C(O)CC1SC(Nc2cc(C(F)(F)F)cc(C(F)(F)F)c2)=NC1=O (stereo not drawn) [CBK059095]
89.8

Specify reported viability at 28.5 h, 10 µM for the compound shown: CCc1c(C)nc2c(C(=O)NCCCOC)cnn2c1C [CBK162149]
82.2

Specify reported viability at 28.5 h, 10 µM for the compound shown: CCCC(=O)N1CCC[C@H]1Cn1nc(-c2ccc(F)cc2)ccc1=O [CBK284288]
99.5

Specify reported viability at 28.5 h, 10 µM for the compound shown: O=S(=O)(NCC1CCCO1)c1ccc2oc3ccc(S(=O)(=O)NCC4CCCO4)cc3c2c1 (stereo not drawn) [CBK265914]
96.2

Specify reported viability at 28.5 h, 10 µM for the compound shown: CC(C)(C)C1=CC2=NC3(CCCCC3)[C@@H]3C[C@@H](O)[C@@H](O)[C@@H]3N2O1 [CBK303235]
111

Specify reported viability at 28.5 h, 10 µM for the compound shown: COc1ccc(-c2cc(C(=O)N3CCC(S(C)(=O)=O)C3)cnc2-c2ccccc2)cn1 (stereo not drawn) [CBK036706]
99.7

Specify reported viability at 28.5 h, 10 µM for the compound shown: CCN1CCN(C(=O)c2nccnc2C(=O)O)CC1 [CBK286718]
88.8

Specify reported viability at 28.5 h, 10 µM for the compound shown: CN(C)C(=O)c1ccc(-c2ccc(COC3CCN(C(=O)c4cc5ccccc5o4)CC3)c(S(C)(=O)=O)c2)cc1 [CBK155965]
94.6

Specify reported viability at 28.5 h, 10 µM for the compound shown: O=C(Nc1cccc(-c2nnco2)c1)C1CCCCC1 [CBK296662]
86.2

Specify reported viability at 28.5 h, 10 µM for the compound shown: C[C@@H](Nc1nc(-c2ccco2)cnc1N)c1ccccc1 [CBK063737]
108

Specify reported viability at 28.5 h, 10 µM for the compound shown: COc1ccc(Nc2cc(-c3ccccc3OC)ncn2)cn1 [CBK037176]
88.9

Specify reported viability at 28.5 h, 10 µM for the compound shown: Cc1ccc(C)c2nc3c(cc12)CN(C1CC1)C(=O)CO3 [CBK282858]
94.8

Specify reported viability at 28.5 h, 10 µM for the compound shown: CCn1c(/C=C/C2=CCN(C)CC2)nc2ccccc21 [CBK283745]
91.8

Specify reported viability at 28.5 h, 10 µM for the compound shown: O=C(c1ccco1)N1CCC[C@H]1[C@H](O)c1nccs1 [CBK284286]
98.5

Specify reported viability at 28.5 h, 10 µM for the compound shown: O=C(Nc1ccc2c(c1)OCCO2)N1CCN(c2ccccc2)CC1 [CBK155187]
94.7

Specify reported viability at 28.5 h, 10 µM for the compound shown: CCOc1ccc(-c2cc(C(=O)N3CCN(C)CC3)c3ccccc3n2)cc1 [CBK066900]
99

Specify reported viability at 28.5 h, 10 µM for the compound shown: O=C(NCc1ccccc1)NC(=O)C1CCN(CCCOc2cccc3ccccc23)CC1 [CBK034856]
84.6

Specify reported viability at 28.5 h, 10 µM for the compound shown: CCNC(=O)Nc1cc2cccnc2nc1-c1ccc2c(c1)OCCCO2 [CBK070695]
97.1

----------
Quick list: viability at 28.5 h, 10 µM per entry.
- Procedure Summary: in vitro
- Run Conditions: human, hela cells, % viability
Just the number in %, nothing appended.

These recorded examples may help you get a feel for the data.
>>> recorded_result("COc1cc(NC(=O)CC2NC3CCCCC3NC2=O)cc(OC)c1 (stereo not shown)")
99.1
>>> recorded_result("CCC(NC(=O)Nc1ccccc1C(=O)O)(C(F)(F)F)C(F)(F)F")
93.2
>>> recorded_result("O=C(COc1ccc(Cl)cc1Cl)Nc1ccc(CN2CCCCC2)cc1")
105
>>> recorded_result("O=S(=O)(CCc1ccccn1)N1CCC(Cc2ccccc2)CC1")
107

Specify reported viability at 28.5 h, 10 µM for the molecule shown: `O=C(COC(=O)c1cc(-c2ccco2)nc2ccccc12)Nc1ccc(F)c(F)c1F`
84.6

Specify reported viability at 28.5 h, 10 µM for the molecule shown: NC(=O)c1cn[nH]c1C1CCCCN1Cc1cccc2c1CCOC2 (stereo not shown)
83.1

Specify reported viability at 28.5 h, 10 µM for the molecule shown: `CC(C)(C)OC(=O)N1CCc2[nH]nc(Nc3ccccc3)c2C1`
80

Specify reported viability at 28.5 h, 10 µM for the molecule shown: `Oc1cc(CCc2ccc(F)cc2)nc2ccnn12`
88.9

Specify reported viability at 28.5 h, 10 µM for the molecule shown: `COC(=O)[C@H]1CCc2ccccc2N1C(=O)C1CC1`
78.9

Specify reported viability at 28.5 h, 10 µM for the molecule shown: `O=C(NC(=O)C1CCNCC1)Nc1ccccc1`
93.8

----------
- Procedure Summary: in vitro
- Run Conditions: human, hela cells, % viability
viability at 28.5 h, 10 µM vs 90%: less than gives t; not less than gives f.

>>> class_label("COc1cc(/C=C2\\C(=O)N(c3ccccc3Cl)N=C2c2ccccc2)ccc1O")
"t"
>>> class_label("O=C(Cn1cccc2cc(C3CCNCC3)nc1-2)N1CCCC1")
"f"
>>> class_label("Cc1cccn2c(CN(C)C(C)C(N)=O)c(C(=O)N3CCOCC3)nc12 (stereo not drawn)")
"f"
>>> class_label("O=C(CC(CN1CCN(c2cccc(Cl)c2)CC1)C(=O)O)NCc1ccccc1 (stereo not drawn)")
"f"
>>> class_label("CC(=O)NC1CCN(CC2(c3ccccc3F)CCCC2)CC1")
"t"

Now consider the entry below.
Problem: For the molecule O=C(NCCCNC1CCc2[nH]c3ccccc3c2C1)c1cccc(Br)c1 (stereo not drawn) [CBK107130T] , is viability at 28.5 h, 10 µM under 90%?
t

----------
Quick list: viability at 28.5 h, 10 µM per entry.
- Procedure Summary: in vitro
- Run Conditions: human, hela cells, % viability
Just the number in %, nothing appended.

>>> recorded_result("COc1ccc(Cl)cc1NC(=S)NCCc1ccc(S(N)(=O)=O)cc1")
85.6
>>> recorded_result("CCOc1ccc(N2C(=O)CC(N3CCN(CCc4ccncc4)CC3)C2=O)cc1 (stereo not shown)")
106
>>> recorded_result("CCOC(=O)C1CCN(CCC(=O)Nc2ccc(F)c(F)c2)CC1")
112
>>> recorded_result("Cc1nc2ncnc(N3CCc4ccccc43)c2[nH]1")
89.2
>>> recorded_result("CC1CCCCN1C(=O)CCc1nc2sc3c(c2c(=O)[nH]1)CCCC3 (stereo not shown)")
112
>>> recorded_result("CCOC(=O)/C(C#N)=C(\\O)c1ccc(N2C(=O)c3ccc(C(=O)O)cc3C2=O)cc1")
91.8
>>> recorded_result("Cc1cc(COc2ncccc2C(F)(F)F)no1")
101
>>> recorded_result("O=C(N/N=C/c1cc2c(cc1Br)OCO2)c1ccc(CN2CCOCC2)cc1")
90.1
>>> recorded_result("CS(=O)(=O)N(CC(=O)Nc1ccc(S(=O)(=O)N2CCCCCC2)cc1)c1ccc(F)cc1")
91.8
>>> recorded_result("CCN1CCCCC1CNC(=O)c1cc(C2CC2)n[nH]1 (stereo not shown)")
91.1

Specify reported viability at 28.5 h, 10 µM for the compound shown: Cc1csc(C(Cc2ccsc2)NC(=O)CCn2ccnc2)n1 (stereo not shown)
91.2

Specify reported viability at 28.5 h, 10 µM for the compound shown: `O=C(O)c1ccc(CN2C(=O)COc3ccccc32)o1`
104

Specify reported viability at 28.5 h, 10 µM for the compound shown: Cn1ncc(N2CCC(CNC(=O)COc3ccccc3)C2)cc1=O (stereo not shown)
92.3
